Consider the following molecules; for each one, report its TGI.
Tested on: SF-539 CNS
Assay: NCI tumour cell line growth inhibition, 48 h
Answers are plain numbers, in µM.

Below are worked cases with known answers.
{"CPD_SMILES": "CC(=O)Nc1ccc(-c2nnc(SCC(=O)Nc3ccc(Cl)cc3Cl)o2)cc1", "UNIT": "µM", "TGI": 84.4}
{"CPD_SMILES": "COc1ccc(C(=O)/C=C/c2ccc(Oc3cc(C(=O)/C=C/c4ccc(O)cc4)c(O)cc3OC)cc2)c(O)c1", "UNIT": "µM", "TGI": 5.26}

Attention now turns to another entry.
Enquiry: What does the data say about its TGI? Entry: "COc1cccc2c1O/C(=C\c1ncc([N+](=O)[O-])n1C)C2=O"
Return: 3.51

---

Tested on: NCI-H226 lung
Experiment: NCI tumour cell line growth inhibition, 48 h; in the data active = GI50 below about 0.43 µM; inactive = the rest
API: response.call in active, inactive

Before answering, review these 3 worked examples.
{"COMPOUND": "Cc1cc(Cl)ccc1OCc1nn2c(CCCCc3nnc4sc(COc5ccc(Cl)cc5C)nn34)nnc2s1", "QUALITATIVE_LABEL": "inactive"}
{"COMPOUND": "O=c1ccccc(-c2ccc(Br)cc2)c1O", "QUALITATIVE_LABEL": "inactive"}
{"COMPOUND": "O=C1C=CC2(O)OC/C(=C\\c3ccccc3)C(O)=C2C1=O (centres undefined)", "QUALITATIVE_LABEL": "inactive"}

Enquiry: Hello, I am checking results. What call was entered for "COc1cc2c3c(n(CCCNC4=NCCS4)c(=O)c2cc1OC)-c1cc2c(cc1C3=O)OCO2" ?
Return: active

Enquiry: Note, next up: "COc1cc(/C=C/C(=O)c2ccccc2)cc(OC)c1OC"
Return: inactive

Enquiry: Same thing, different compound: "COc1cc2cnc3c(c2c(OC)c1OC)Cc1cc2c(cc1-3)OCO2"
Return: inactive

Enquiry: Consider next the compound "Cc1ccc(C2=NN(c3ccc(S(C)(=O)=O)cc3)C(=O)CC2)cc1" in the same way.
Return: inactive

Enquiry: Another compound: "O=C1/C=C/[C@@H](O)[C@@H]2C[C@@H](O)C[C@H]2/C=C/CCC[C@H](CCc2ccccc2)O1"
Return: active

Enquiry: Now consider "COc1cc(-c2nn(-c3cccc(NC(=O)Nc4cccc(C(F)(F)F)c4)c3)cc2-c2ccncc2)ccc1Cl" .
Return: inactive

---

Tested on: OVCAR-8 ovarian
Experiment: NCI tumour cell line growth inhibition, 48 h
ATTRIBUTE_MEASURED: TGI

Past entries and their recorded results:
{"MOLECULE": "COc1cc2c3c(n(CCCNC4=NCCS4)c(=O)c2cc1OC)-c1cc2c(cc1C3=O)OCO2", "STUDY_TARGET": "OVCAR-8 ovarian", "TGI": "2.11 µM"}
{"MOLECULE": "COc1cc2cnc3c(c2c(OC)c1OC)Cc1cc2c(cc1-3)OCO2", "STUDY_TARGET": "OVCAR-8 ovarian", "TGI": "> 29.4 µM"}
{"MOLECULE": "Cc1nc2c(=O)[nH]ncc2[nH]1", "STUDY_TARGET": "OVCAR-8 ovarian", "TGI": "> 100 µM"}
{"MOLECULE": "COc1cc(S(=O)(=O)Nc2nc(-c3ccc(N4C(=O)/C(=C\\c5cccs5)N=C4c4ccccc4)cc3)cs2)ccc1Cl", "STUDY_TARGET": "OVCAR-8 ovarian", "TGI": "> 100 µM"}
{"MOLECULE": "COC1O[C@@H]2COC(C)(C)O[C@@H]2C(=O)N1Nc1ccc([N+](=O)[O-])cc1 (stereo partly specified)", "STUDY_TARGET": "OVCAR-8 ovarian", "TGI": "> 100 µM"}
{"MOLECULE": "O=C1Nc2c(Cl)cc(Cl)cc2C1=O", "STUDY_TARGET": "OVCAR-8 ovarian", "TGI": "55.8 µM"}
{"MOLECULE": "Nc1c(C(=O)Nc2cccc(C(F)(F)F)c2)sc2nc3c(cc12)C(O)CCC3 (stereo unspecified)", "STUDY_TARGET": "OVCAR-8 ovarian", "TGI": "> 100 µM"}
{"MOLECULE": "CC1CC2(OC2C)C(=O)OC2CCN(C)C/C=C(/COC(=O)C1(C)O)C2=O (stereo unspecified)", "STUDY_TARGET": "OVCAR-8 ovarian", "TGI": "> 100 µM"}

Hey, can you go through the list below and give me TGI for every item?
1. CCCN1C/C(=C\c2ccc(O)c(OC)c2)C(=O)/C(=C/c2ccc(O)c(OC)c2)C1
2. COC(=O)c1cnc(Cl)c([N+](=O)[O-])c1
3. CCNc1cnc2c(n1)c(=O)n(C)c(=O)n2C
4. CCCCNC(=O)c1cc(S(=O)(=O)n2cc[nH]c2=O)c(SC)cc1Cl

Return:
["> 100 µM", "3.95 µM", "> 100 µM", "> 100 µM"]

Hello, I would appreciate it if you could give TGI for each entry below.
1. N#CNCC(COCc1ccccc1)c1ccccc1 (stereo unspecified)
2. Cc1ccc(C2=Nc3c(N)nc(N)nc3NC(c3cccc(Nc4ccnc5cc(C(F)(F)F)ccc45)c3)C2)cc1 (stereo unspecified)
3. Cc1ccccc1NC(=O)C(=O)c1c(O)c2ccc(O)cc2oc1=O
4. N#CC(C#N)=C1NN=C(Cl)c2ccccc21
5. CC1OC(Oc2c(-c3cc(O)c(O)c(O)c3)oc3cc(O)cc(O)c3c2=O)C(O)C(O)C1O (stereo unspecified)
6. COc1ccc(/C(Cl)=C(\CN(C)C)c2ccc(OC)c(OC)c2)cc1OC

Return:
["> 100 µM", "5.6 µM", "> 100 µM", "> 100 µM", "> 100 µM", "> 100 µM"]

---

Kindly state TGI for each of the entries shown.
System: HOP-92 NSCLC
Test: NCI tumour cell line growth inhibition, 48 h

Solved cases below.
{"COMPOUND": "ONCCCn1cnc2c(NC3CC3)ncnc21", "ATTRIBUTE_MEASURED": "TGI", "RESULT": "> 100 µM"}
{"COMPOUND": "N#CNCC(COCc1ccccc1)c1ccccc1 (stereo unspecified)", "ATTRIBUTE_MEASURED": "TGI", "RESULT": "> 100 µM"}
{"COMPOUND": "N#CC(C#N)=Cc1c[nH]c(=O)[nH]c1=O", "ATTRIBUTE_MEASURED": "TGI", "RESULT": "> 100 µM"}
{"COMPOUND": "[2H]c1nc(C)nc([2H])c1-c1cc(NC[C@@H](C)c2cccc3c(C(=O)NC)ccnc23)ncn1", "ATTRIBUTE_MEASURED": "TGI", "RESULT": "> 100 µM"}
{"COMPOUND": "Cc1ccc(O)c(C2=CC3=NNC(=O)C3C(c3cccc(Br)c3)C2)c1 (stereo unspecified)", "ATTRIBUTE_MEASURED": "TGI", "RESULT": "> 75 µM"}
{"COMPOUND": "CC(CCOc1ccc2ccc(=O)oc2c1)C1=CC(=O)C(C)(C)O1 (stereo unspecified)", "ATTRIBUTE_MEASURED": "TGI", "RESULT": "13.2 µM"}

// each listed compound needs a value for TGI
1. Cc1ccc(C2=NN(c3ccc(S(C)(=O)=O)cc3)C(=O)CC2)cc1
2. N#C/C(=C\c1ccc(Br)cc1)n1nnc2c(F)cccc21
3. CCN=c1nc2sc3c(c2c(NC(=S)NCC)s1)CCN(N1CCc2c(sc4nc(=NCC)sc(NC(=S)NCC)c24)C1)C3
4. S=c1[nH]nc(-c2ccccc2)n1/N=C\c1ccc(-c2ccc(Cl)cc2)o1
5. C[C@@H](O)CCC(=O)c1ccoc1
6. Cc1ccc(S(=O)(=O)C(CC(NC=O)S(=O)(=O)c2ccc(C)cc2)NC=O)cc1 (stereo unspecified)
7. COc1ccc(-c2nc(Sc3c([N+](=O)[O-])ncn3C)n[nH]2)cc1

Return:
1: > 28.8 µM; 2: 4.48 µM; 3: 84.7 µM; 4: > 100 µM; 5: > 100 µM; 6: > 100 µM; 7: 8.88 µM

---

Test system: HL-60(TB) leukemia
Assay: NCI tumour cell line growth inhibition, 48 h
ATTRIBUTE_MEASURED: GI50

A selection of reference data follows.
{"COMPOUND": "Cc1cc(=O)n2nnc3c4ccccc4ccc3n12", "GI50": "11500 nM"}
{"COMPOUND": "C=[CH][Sn]([CH]=C)([S]c1cccc2cccnc12)[S]c1cccc2cccnc12", "GI50": "268 nM"}

Your task in this section: give GI50 for each listed record.
1. CC(C)Oc1ccc(-c2nn([C@@H](C)c3oc4ccc(F)cc4c(=O)c3-c3cccc(F)c3)c3ncnc(N)c23)cc1F
2. Cc1nc2cc(-c3nn(C(C)C)c4ncnc(N)c34)ccc2o1
3. COc1cc(C2CC(c3cccc(Nc4ccncc4)c3)=NN2c2ccccc2)cc(OC)c1OC (configuration not stated)
4. Cc1cc2cn3c4ccc(O)cc4nc(N)c3c2cc1C
5. COc1cc(-c2nn(-c3cccc(NC(=O)Nc4cccc(C(F)(F)F)c4)c3)cc2-c2ccncc2)ccc1Cl

Return:
1. 30400 nM
2. 68 nM
3. 1720 nM
4. 33.1 nM
5. 756 nM
